assay: Lyophilization of PLGA-mPEG NPs in the presence of lyoprotectants, reconstitution with water, DLS; format: physicochemical; parameters: key: Y = aggregates observed; N = no aggregates observed; settings: lyoprotectant/NP mass ratio 10
recorded endpoint: Aggr. (visible large aggregates)

[[record]]
compound = "NCC(=O)O [Glycine]"
recorded_endpoint = "Aggr. (visible large aggregates)"
recorded_result = "Y"

[[record]]
compound = "O=C[C@H](O)[C@@H](O)[C@@H](O)[C@H](O)CO [Galactose]"
recorded_endpoint = "Aggr. (visible large aggregates)"
recorded_result = "Y"

[[record]]
compound = "OC[C@H]1O[C@H](O[C@H]2[C@H](O)[C@@H](O)C(O)O[C@@H]2CO)[C@H](O)[C@@H](O)[C@@H]1O (mixture of isomers) [Maltose]"
recorded_endpoint = "Aggr. (visible large aggregates)"
recorded_result = "Y"

[[record]]
compound = "OC[C@@H](O)[C@@H](O)[C@H](O)[C@@H](O)CO [Sorbitol]"
recorded_endpoint = "Aggr. (visible large aggregates)"
recorded_result = "Y"

[[record]]
compound = "OC[C@H]1O[C@@](CO)(O[C@H]2O[C@H](CO)[C@@H](O)[C@H](O)[C@H]2O)[C@@H](O)[C@@H]1O [Sucrose]"
recorded_endpoint = "Aggr. (visible large aggregates)"
recorded_result = "Y"

[[record]]
compound = "CCCCCCCCCCCCOS(=O)(=O)[O-].[Na+] [SDS, sodium dodecyl sulfate]"
recorded_endpoint = "Aggr. (visible large aggregates)"
recorded_result = "Y"


----------
// Size in nm lookup, one value per entry
experiment: Lyophilization of PLGA-mPEG NPs in the presence of lyoprotectants, reconstitution with water, DLS; assay type: physicochemical; conditions: PLGA-mPEG NPs lyophilized and reconstituted; lyoprotectant/NP mass ratio 10
recorded endpoint: Size in nm

[[record]]
compound = "OC[C@@H](O)[C@@H](O)[C@H](O)[C@@H](O)CO"
recorded_endpoint = "Size in nm"
recorded_result = "764.8 nm"

[[record]]
compound = "O=C[C@H](O)[C@@H](O)[C@@H](O)[C@H](O)CO"
recorded_endpoint = "Size in nm"
recorded_result = ">1000 nm"

[[record]]
compound = "OC[C@H]1O[C@H](O[C@H]2[C@H](O)[C@@H](O)C(O)O[C@@H]2CO)[C@H](O)[C@@H](O)[C@@H]1O (mixture of isomers)"
recorded_endpoint = "Size in nm"
recorded_result = "220.4 nm"

[[record]]
compound = "OC[C@H]1O[C@@](CO)(O[C@H]2O[C@H](CO)[C@@H](O)[C@H](O)[C@H]2O)[C@@H](O)[C@@H]1O"
recorded_endpoint = "Size in nm"
recorded_result = "217.5 nm"

[[record]]
compound = "CCCCCCCCCCCCOS(=O)(=O)[O-].[Na+] [SDS, sodium dodecyl sulfate]"
recorded_endpoint = "Size in nm"
recorded_result = ">1000 nm"

[[record]]
compound = "NCC(=O)O"
recorded_endpoint = "Size in nm"
recorded_result = ">1000 nm"

